- test.details: Metabolic stability in liver microsomes, HLM
- stated.conditions: 1 μM, NADPH
Counter-ions that a name gives are not always drawn.
measurement.name: Metabolic stability HLM % remaining in 30 min (%)
Value expressed in %; do not type the unit.

Sample records with Metabolic stability HLM % remaining in 30 min:
COc1ccc(C2CC2NCc2cn3c(n2)CN(c2ncc(C(=O)NO)cn2)CC3)cc1 (stereo not shown) [Example 24, TFA Salt]: 71
O=C(NO)c1ccc(CCCN2CCC(NC3CC3c3ccccc3)CC2)cc1 (stereo not shown) [Example 44, TFA Salt]: 71
COc1ccc(C2CC2NCC2CCN(CCCc3ccc(C(=O)NO)cc3)CC2)cc1 (stereo not shown) [Example 51, TFA Salt]: 74
O=C(NO)c1cnc(N2CCC(NC3CC3c3ccccc3)CC2)nc1 (stereo not shown) [Example 9, TFA Salt]: 65
Cn1cc(-c2ccc(C3CC3NCC3CN(C(=O)/C=C/c4ccc(C(=O)NO)cc4)C3)cc2)cn1 (stereo not shown) [Example 119, TFA Salt]: 72

// query Kindly indicate its recorded Metabolic stability HLM % remaining in 30 min. Item: Nc1ccccc1NC(=O)c1ccc(CCCN2CCC(CNC3CC3c3ccc(F)c(F)c3)CC2)cc1 (stereo not shown) [Example 124, TFA Salt]
// result 73

// query Identify the reported Metabolic stability HLM % remaining in 30 min for the following entry. O=C(NO)c1ccc(CCCN2CCC(CNC3CC3c3ccc(OCc4ccc(F)cc4)cc3)CC2)cc1 (stereo not shown) [Example 52, TFA Salt]
// result 79
